Collected melting point values appear next to each entry.
property: melting point

molecule: Cn1c(CCC(=O)O)nc(=O)c2ccccc21
property: melting point
result: 200 to 202 °C
--
molecule: COc1ccc(C(=O)O)cc1S(=O)(=O)Nc1ccc(Br)cc1
property: melting point
result: 257 to 259 °C
--
molecule: CCCC(=O)NC1CCCNC1 (stereo not drawn)
property: melting point
result: 57 to 59 °C
--
molecule: CC1(c2ccc(F)cc2F)NC(=O)NC1=O (stereo not drawn)
property: melting point
result: 194 to 196 °C
--
molecule: O=C(CCl)Nc1cc(C(F)(F)F)ccc1N1CCCC1
property: melting point
result: 271 to 272 °C
--
molecule: CC(Cc1nnc(S)o1)c1ccccc1 (stereo not drawn)
property: melting point
result: 102 to 104 °C
--
molecule: CC(C)Oc1ccc(S(=O)(=O)N2CCCCC2)cc1NC(=O)CCl
property: melting point
result: 270 to 272 °C
--
molecule: NCc1ccc(NC(=O)c2ccco2)cc1
property: melting point
result: 102 to 104 °C
--
molecule: CCN(CC)c1ccc(S(=O)(=O)N2CCOCC2)cc1NC(=O)CCl
property: melting point
result: 99 to 101 °C
--
molecule: Oc1ccc(CNC2CCCCC2)cc1
property: melting point
result: 105 to 107 °C
--
molecule: Nc1ccccc1CN1C(=O)CCC1=O
property: melting point
result: 108 to 110 °C
--
molecule: O=Cc1cn(-c2ccccc2)cn1
property: melting point
result: 125 to 127 °C
--
molecule: Cc1nn(-c2ccccn2)c2nc(C3CC3)cc(C(=O)O)c12
property: melting point
result: 237 to 239 °C
--
molecule: COc1cc(C)c(Br)cc1S(=O)(=O)Cl
property: melting point
result: 137 to 139 °C
--
molecule: Cc1ccn2c(CN3CCNCC3)c(C)nc2c1
property: melting point
result: 97 to 99 °C
--
molecule: CN(C)c1ccc(C#N)c(N)c1
property: melting point
result: 109 to 111 °C
--
molecule: COCCNS(=O)(=O)c1ccc(Br)c(C(=O)O)c1
property: melting point
result: 194 to 197 °C
--
molecule: Oc1cc2c(nn1)CCNC2
property: melting point
result: 211 to 213 °C
--
molecule: COc1ccc(CNC(N)=S)cc1OC
property: melting point
result: 191 to 193 °C
--
molecule: CCS(=O)(=O)CCOc1ccc(S(=O)(=O)Cl)cc1
property: melting point
result: 92 to 94 °C
--
molecule: Nc1ccc(Oc2cccc(F)c2)cc1
property: melting point
result: 72 to 74 °C
--
molecule: O=C(O)C1CC(=O)N(c2cccc3ccccc23)C1 (stereo not drawn)
property: melting point
result: 207 to 209 °C
--
molecule: Cc1ccc(C)c(C(=O)CCC(=O)O)c1
property: melting point
result: 80 to 84 °C
--
molecule: CC(Cl)C(=O)Nc1cccc(C#N)c1 (stereo not drawn)
property: melting point
result: 108 to 110 °C
--
molecule: O=S(=O)(Cl)CCc1ccccc1
property: melting point
result: 30 to 32 °C
--
molecule: C=CCNC(=O)NC(=O)C(C)Cl (stereo not drawn)
property: melting point
result: 68 to 70 °C
--
molecule: O=C(O)CCc1ccc(-c2ccccc2)[nH]1
property: melting point
result: 197 to 199 °C
--
molecule: ON=C1CCCOc2ccc(Br)cc21
property: melting point
result: 107 to 109 °C
--
molecule: O=C(O)CNC(=O)c1cccc(OCc2ccccc2)c1
property: melting point
result: 185 to 187 °C
--
molecule: Cc1nc(Cl)c2c(-c3ccccc3)c(C)sc2n1
property: melting point
result: 60 to 62 °C
--
molecule: CS(=O)(=O)c1ccc(N)cc1F
property: melting point
result: 116 to 118 °C
--
molecule: O=C(O)c1ccc([N+](=O)[O-])s1
property: melting point
result: 143 to 151 °C
--
molecule: Cc1cc(S(=O)(=O)Cl)cc(C)c1F
property: melting point
result: 88 to 90 °C
--
molecule: CC(=O)c1ccc2cc(O)ccc2c1
property: melting point
result: 170 to 172 °C
--
molecule: NS(=O)(=O)N1CCOc2ccccc21
property: melting point
result: 135 to 137 °C
--
molecule: CC(C)CC(=O)NNC(=O)C(C)Cl (stereo not drawn)
property: melting point
result: 174 to 176 °C
--
molecule: Cc1cc(O)cc(C(=O)O)c1
property: melting point
result: 205 to 207 °C
--
molecule: C=CCn1c(S)nc2cc(Cl)ccc2c1=O
property: melting point
result: 139 to 141 °C
--
molecule: Cc1ccc(C(=O)Nc2cccc(C(F)(F)F)c2)cc1O
property: melting point
result: 169 to 171 °C
--
molecule: Nc1nc2c(F)c(F)c(F)cc2s1
property: melting point
result: 160 to 164 °C
--
molecule: O=C(NC1CC1)c1cc([N+](=O)[O-])ccc1Cl
property: melting point
result: 180 to 182 °C
--
molecule: Cc1noc(COc2ccc(O)cc2)n1
property: melting point
result: 62 to 64 °C
--
molecule: O=C(O)CN1C(=O)Cc2ccccc2C1=O
property: melting point
result: 246 to 248 °C
--
molecule: O=C(O)c1cc(=O)c2cc(Br)ccc2[nH]1
property: melting point
result: 297 to 299 °C
--
molecule: CS(=O)(=O)c1ccc(C(=O)NN)cc1
property: melting point
result: 189 to 191 °C
--
molecule: O=C(O)c1cccc2[nH]cnc12
property: melting point
result: 326 to 330 °C
--
molecule: Nc1cc(I)ccc1O
property: melting point
result: 135 to 137 °C
--
molecule: Cn1c(=O)n(Cc2ccc(Br)cc2)c(=O)c2ccc(C(F)(F)F)nc21
property: melting point
result: 103 to 105 °C
--
molecule: Fc1ccc2c(C3=CCNCC3)c[nH]c2c1
property: melting point
result: 173 to 175 °C
--
molecule: NC(=O)CCCO
property: melting point
result: 42 to 44 °C
--
molecule: CNC(=O)CS(=O)(=O)c1ccc(C(=O)O)cc1
property: melting point
result: 249 to 251 °C
--
molecule: O=C(O)c1cnc(O)cc1O
property: melting point
result: 293 to 295 °C
--
molecule: Cc1c(S(=O)(=O)Cl)cnn1-c1ccccc1Cl
property: melting point
result: 98 to 100 °C

====

molecule: CC1=CC(=O)N(c2ccccc2C(=O)O)C1=O
melting point: 163 to 165 °C
//
molecule: O=C(O)C1CCc2c(Cl)cccc21 (stereo not given)
melting point: 111 to 113 °C
//
molecule: Cc1nn(-c2ccccc2)c2nc(Cl)c(C=O)cc12
melting point: 189 to 191 °C
//
molecule: CCN(CC)CC(=O)Nc1ccc(C(F)(F)F)cc1N
melting point: 94 to 96 °C
//
molecule: O=C(O)C1CCN(C(=O)NCc2ccco2)CC1
melting point: 138 to 140 °C
//
molecule: CC(C)c1c(C(=O)O)cnn1Cc1ccccc1
melting point: 153 to 155 °C
//
molecule: NS(=O)(=O)c1cc(F)cc(C(=O)O)c1Br
melting point: 207 to 209 °C
//
molecule: O=S1(=O)Nc2ncnn2-c2ccccc21
melting point: 284 to 286 °C
//
molecule: O=C(O)CCNC(=O)c1ccc(F)cc1
melting point: 133 to 135 °C
//
molecule: O=C1CNc2ccccc2N1
melting point: 119 to 121 °C
//
molecule: NC(=O)N1CCCCC1C(=O)O (stereo not given)
melting point: 139 to 141 °C
//
molecule: CC(C)CCNC(=O)NC(=O)CCl
melting point: 93 to 95 °C
//
molecule: Cc1noc(NC(=O)CCl)n1
melting point: 161 to 163 °C
//
molecule: COC(C)c1ncc(C(=O)O)s1 (stereo not given)
melting point: 131 to 133 °C
//
molecule: Cc1ccc(C#N)cc1N
melting point: 76 to 78 °C
//
molecule: O=c1[nH]cc(N2CCOCC2)c(=O)[nH]1
melting point: 304 to 306 °C
//
molecule: O=S(=O)(CCCl)c1cccc(Br)c1
melting point: 63 to 65 °C
//
molecule: O=C(O)CCNS(=O)(=O)c1cccc(Br)c1
melting point: 146 to 148 °C
//
molecule: CC(C(=O)O)c1ccc(N(C)C)cc1 (stereo not given)
melting point: 128 to 130 °C
//
molecule: Sc1ccc(-c2ccccc2)cc1
melting point: 106 to 108 °C
//
molecule: CC(=O)C(N)=S
melting point: 59 to 61 °C
//
molecule: O=S(=O)(c1ccc(Br)s1)N1CCNCC1
melting point: 195 to 205 °C
//
molecule: Cc1cc(Cl)c(C#N)c(C)n1
melting point: 65 to 67 °C
//
molecule: O=S(=O)(c1ccc(Cl)c(C(F)(F)F)c1)N1CCNCC1
melting point: 292 to 295 °C
//
molecule: O=C(O)c1c[nH]cc1-c1ccc(F)cc1
melting point: 199 to 201 °C
//
molecule: Cc1ccnc(-c2ccc(N)cc2)n1
melting point: 118 to 120 °C
//
molecule: Cn1c(-c2ccccc2)c(C(=O)O)c2ccccc21
melting point: 192 to 194 °C
//
molecule: COc1ccccc1NC(=O)CC#N
melting point: 87 to 90 °C
//
molecule: CCCOc1ccc(N)cc1Cl
melting point: 49 to 51 °C
//
molecule: COc1ccc([N+](=O)[O-])cc1C(C)N (stereo not given)
melting point: 62 to 64 °C
